assayInfo: Wild-type MDCK permeability and efflux assay (Papp, efflux ratio)
Format: in vitro ADME
details: dog, pH 7.4; Papp B>A/Papp A>B, wild-type MDCK cells; read-out: ER WT (Efflux Ratio)
measurementType: efflux ratio at 1 h, 10 μM

[[record]]
compound = "O=C(N1CC2(C1)CN(c1ccc(F)cn1)C2)N1CCOc2cc(F)ccc21"
reportedmeasurement = "< 1"

[[record]]
compound = "CC1COc2cc(F)ccc2N1C(=O)N1CC2(C1)CN(c1noc3ccccc13)C2 (centres unmarked) [4-3]"
reportedmeasurement = "< 1"

[[record]]
compound = "O=C(N1CC2(C1)CN(c1cnccn1)C2)N1CCc2cc(Cl)ccc21"
reportedmeasurement = "1 to 2"

[[record]]
compound = "O=C(N1CC2(C1)CN(c1cnccn1)C2)N1CCOc2cc(Cl)ccc21"
reportedmeasurement = "< 1"


Moving on to the next compound.
Which value of efflux ratio at 1 h, 10 μM has been reported for CC1COc2cc(Cl)ccc2N1C(=O)N1CC2(C1)CN(c1cnccn1)C2 (single isomer, unassigned) in the records?
1 to 2

----------
experimentalSystem: V1a receptors (Rattus norvegicus)
Construct: Rat choroid plexus (RCP) cell lines express functional V1a receptors; endogenous in cells; host or cells: rat choroid plexus (RCP) cell line, RCP P9(18)
Sequence (P30560 whole entry): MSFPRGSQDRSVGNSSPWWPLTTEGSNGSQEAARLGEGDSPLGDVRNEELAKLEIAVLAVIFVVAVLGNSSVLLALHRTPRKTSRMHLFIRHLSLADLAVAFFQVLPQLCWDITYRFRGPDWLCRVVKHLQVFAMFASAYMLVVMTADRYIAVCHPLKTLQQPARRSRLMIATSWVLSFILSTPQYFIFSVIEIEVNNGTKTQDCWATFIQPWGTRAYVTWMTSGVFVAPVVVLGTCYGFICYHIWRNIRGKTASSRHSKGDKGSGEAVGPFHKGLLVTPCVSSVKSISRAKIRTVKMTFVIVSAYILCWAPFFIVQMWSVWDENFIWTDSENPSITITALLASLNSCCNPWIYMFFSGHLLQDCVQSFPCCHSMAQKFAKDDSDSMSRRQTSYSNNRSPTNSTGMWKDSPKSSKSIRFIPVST
assayInfo: AVP induced phospho-ERK measurement in rat choroid plexus (RCP) cells
Type: cell-based
details: first study; RCP cells stimulated with AVP, pERK1/2 to total ERK1/2 ratio
measurementType: pIC50
Lab note: report pIC50 as minus log10 of the concentration in molar units, number only.

[[record]]
molecule = "CC1COc2cc(Cl)ccc2N1C(=O)N1CC2(C1)CN(c1ncccn1)C2 (single isomer, unassigned) [1-83-B]"
reportedmeasurement = 7.80


Moving on to the next molecule.
Which value of pIC50 has been reported for CN1Cc2cc(Cl)ccc2-n2c(nnc2[C@H]2CC[C@H](Oc3ccccn3)CC2)C1 [balovaptan, reference compound] in the records?
7.96

----------
experimentalSystem: MDR1 (P-glycoprotein) (Homo sapiens, UniProt P08183)
Construct: host or cells: MDCK (MDR1-MDCK; wild-type MDCK as comparator)
Sequence (P08183 whole entry): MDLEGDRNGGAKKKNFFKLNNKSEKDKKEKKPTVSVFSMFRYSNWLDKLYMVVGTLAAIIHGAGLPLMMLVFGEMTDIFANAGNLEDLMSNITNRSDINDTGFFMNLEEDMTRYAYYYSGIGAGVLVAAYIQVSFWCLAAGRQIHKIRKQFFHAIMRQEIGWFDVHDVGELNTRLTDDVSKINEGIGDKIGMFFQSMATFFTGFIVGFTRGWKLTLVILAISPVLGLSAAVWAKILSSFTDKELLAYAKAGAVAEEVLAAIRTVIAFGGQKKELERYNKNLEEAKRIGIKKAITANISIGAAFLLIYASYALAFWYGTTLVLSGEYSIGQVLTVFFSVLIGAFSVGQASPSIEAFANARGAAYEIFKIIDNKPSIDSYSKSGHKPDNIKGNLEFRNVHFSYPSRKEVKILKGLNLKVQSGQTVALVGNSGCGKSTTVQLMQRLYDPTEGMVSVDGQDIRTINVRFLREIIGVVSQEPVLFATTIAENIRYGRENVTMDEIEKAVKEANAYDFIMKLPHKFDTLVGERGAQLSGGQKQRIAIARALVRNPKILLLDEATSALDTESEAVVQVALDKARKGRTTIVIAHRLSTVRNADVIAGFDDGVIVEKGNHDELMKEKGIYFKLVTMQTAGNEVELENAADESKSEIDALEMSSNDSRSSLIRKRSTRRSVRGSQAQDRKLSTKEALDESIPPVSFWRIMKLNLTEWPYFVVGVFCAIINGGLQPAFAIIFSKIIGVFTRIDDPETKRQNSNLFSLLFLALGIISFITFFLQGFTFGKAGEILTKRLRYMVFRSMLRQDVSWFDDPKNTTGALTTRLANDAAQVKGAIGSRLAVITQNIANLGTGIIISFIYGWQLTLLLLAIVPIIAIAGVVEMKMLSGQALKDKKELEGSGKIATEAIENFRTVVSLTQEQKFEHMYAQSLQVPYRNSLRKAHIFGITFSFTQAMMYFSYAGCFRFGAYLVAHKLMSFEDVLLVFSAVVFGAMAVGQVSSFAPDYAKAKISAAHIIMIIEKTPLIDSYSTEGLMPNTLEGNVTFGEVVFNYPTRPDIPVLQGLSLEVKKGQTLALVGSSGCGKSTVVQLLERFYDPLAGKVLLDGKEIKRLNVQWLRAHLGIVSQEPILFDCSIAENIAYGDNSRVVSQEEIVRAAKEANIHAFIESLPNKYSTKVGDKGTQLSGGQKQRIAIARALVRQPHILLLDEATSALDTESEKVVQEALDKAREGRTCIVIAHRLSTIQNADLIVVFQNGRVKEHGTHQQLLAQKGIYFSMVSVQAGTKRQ
assayInfo: MDR1-MDCK permeability and efflux assay (Papp, efflux ratio, effective efflux ratio)
Assay type: in vitro ADME
details: dog, MDCK-MDR1, pH 7.4, ER(MDR1-MDCK)/ER(wild-type MDCK); read-out: EER (Effective Efflux Ratio)
measurementType: efflux ratio at 1 h, 10 μM

[[record]]
molecule = "CC1COc2cc(Cl)ccc2N1C(=O)N1CC2(C1)CN(c1ccccn1)C2 (stereo not shown) [1-60]"
experimentalsystem = "MDR1 (P-glycoprotein) (Homo sapiens, UniProt P08183)"
reportedmeasurement = "< 1"


Moving on to the next molecule.
Which value of efflux ratio at 1 h, 10 μM has been reported for CC1COc2cc(F)c(F)cc2N1C(=O)N1CC2(C1)CN(c1ncccn1)C2 (single isomer, unassigned) [19-1-B] in the records?
< 1

----------
experimentalSystem: human Oxytocin Receptor (hOTR) (Homo sapiens)
assayInfo: Oxytocin receptor (OTR) antagonist assay (FLIPR calcium, CHEM-1-hOTR cells)
Known IC50 of a selection of compounds

[[record]]
compound = "Cc1cncc(N2CC3(CN(C(=O)N4c5ccc(F)cc5OCC4C)C3)C2)n1 (single isomer, unassigned) [20-2-B]"
experimentalsystem = "human Oxytocin Receptor (hOTR) (Homo sapiens)"
reportedmeasurement = "100 to 500 nM"


Moving on to the next compound.
Which value of IC50 has been reported for COc1ccnc(N2CC3(CN(C(=O)N4c5ccc(Cl)cc5OCC4C)C3)C2)n1 (single isomer, unassigned) [20-9-B] in the records?
500 to 1000 nM

----------
Known efflux ratio at 1 h, 10 μM of a selection of compounds
experimentalSystem: MDR1 (P-glycoprotein) (Homo sapiens, UniProt P08183)
Construct: host or cells: MDCK (MDR1-MDCK; wild-type MDCK as comparator)
assayInfo: MDR1-MDCK permeability and efflux assay (Papp, efflux ratio, effective efflux ratio)
Format: in vitro ADME
details: dog, MDCK-MDR1, pH 7.4, ER(MDR1-MDCK)/ER(wild-type MDCK); read-out: EER (Effective Efflux Ratio)

Examples with their reported efflux ratio at 1 h, 10 μM follow.
[[record]]
compound = "Cc1nc(N2CC3(CN(C(=O)N4c5ccc(Cl)cc5OCC4C)C3)C2)ncc1F (single isomer, unassigned) [20-7-A]"
reportedmeasurement = "< 1"

[[record]]
compound = "Cc1ccnc(N2CC3(CN(C(=O)N4c5ccc(F)cc5OCC4C)C3)C2)c1 (single isomer, unassigned) [20-4-B]"
reportedmeasurement = "1 to 2"


Which value of efflux ratio at 1 h, 10 μM has been reported for CC1COc2cc(Cl)ccc2N1C(=O)N1CC2(C1)CN(c1ccccn1)C2 (single isomer, unassigned) [1-60-B] in the records?
1 to 2

Now the compound CC1COc2cc(Cl)ccc2N1C(=O)N1CC2(C1)CN(c1nccc(C(F)(F)F)n1)C2 (stereo not shown) [21-10]
1 to 2

Now the compound O=C(N1CC2(C1)CN(c1cnc(F)cn1)C2)N1CCOc2cc(Cl)ccc21 [1-18]
< 1

Now the compound COc1ccnc(N2CC3(CN(C(=O)N4c5ccc(Cl)cc5OCC4C)C3)C2)c1 (stereo not shown) [20-8]
< 1

Now the compound Cc1cnnc(N2CC3(CN(C(=O)N4c5ccc(Cl)cc5OCC4C)C3)C2)c1 (stereo not shown) [21-4]
> 3

----------
experimentalSystem: UniProtKB P37288
Sequence (P37288 whole entry): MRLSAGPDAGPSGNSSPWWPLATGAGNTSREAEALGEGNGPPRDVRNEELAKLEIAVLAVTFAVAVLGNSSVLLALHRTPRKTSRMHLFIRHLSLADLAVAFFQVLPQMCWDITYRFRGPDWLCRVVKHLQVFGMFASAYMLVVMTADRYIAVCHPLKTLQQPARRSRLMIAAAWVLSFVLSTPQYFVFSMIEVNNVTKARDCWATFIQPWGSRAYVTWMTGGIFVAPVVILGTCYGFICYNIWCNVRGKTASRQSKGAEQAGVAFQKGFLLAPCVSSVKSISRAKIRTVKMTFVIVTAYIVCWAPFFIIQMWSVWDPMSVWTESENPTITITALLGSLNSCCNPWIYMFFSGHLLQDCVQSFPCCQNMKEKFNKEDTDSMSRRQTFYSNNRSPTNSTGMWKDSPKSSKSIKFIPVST
assayInfo: Vasopressin V1a receptor antagonist assay (FLIPR calcium, CHO-AVPR1a cells)
pIC50: −log10 of the molar value.
measurementType: pIC50

Examples with their reported pIC50 follow.
[[record]]
compound = "N#Cc1ccc(N2CC3(CN(C(=O)N4CCOc5cc(Cl)ccc54)C3)C2)nc1"
measurementtype = "pIC50"
reportedmeasurement = "6.30 to 7.00"

[[record]]
compound = "N#Cc1cnc(N2CC3(CN(C(=O)N4CCOc5cc(Cl)ccc54)C3)C2)cn1"
measurementtype = "pIC50"
reportedmeasurement = "6.00 to 6.30"

[[record]]
compound = "CCc1cnc(N2CC3(CN(C(=O)N4c5ccc(Cl)cc5OCC4C)C3)C2)nc1 (centres unmarked)"
measurementtype = "pIC50"
reportedmeasurement = "> 7.00"

[[record]]
compound = "CC1COc2cc(Cl)ccc2N1C(=O)N1CC2(C1)CN(c1cc(=O)n(C)cn1)C2 (centres unmarked) [20-14]"
measurementtype = "pIC50"
reportedmeasurement = "6.30 to 7.00"

[[record]]
compound = "CC1COc2cc(Cl)ccc2N1C(=O)N1CC2(C1)CN(c1ncccn1)C2 (single isomer, unassigned) [1-83-B]"
measurementtype = "pIC50"
reportedmeasurement = "> 7.00"


Which value of pIC50 has been reported for CC1COc2cc(F)c(F)cc2N1C(=O)N1CC2(C1)CN(c1ncccn1)C2 (single isomer, unassigned) [19-1-B] in the records?
> 7.00

Now the compound Cc1cncc(N2CC3(CN(C(=O)N4c5ccc(F)cc5OCC4C)C3)C2)n1 (single isomer, unassigned) [20-2-B]
> 7.00

Now the compound CC1COc2cc(Cl)ccc2N1C(=O)N1CC2(C1)CN(c1ccccn1)C2 (single isomer, unassigned) [1-60-B]
> 7.00

Now the compound CCc1ccnc(N2CC3(CN(C(=O)N4c5ccc(Cl)cc5OCC4C)C3)C2)n1 (single isomer, unassigned) [18-5-B]
> 7.00

Now the compound `O=C(N1CC2(C1)CN(c1ccc(F)cn1)C2)N1CCS(=O)(=O)c2cc(Cl)ccc21`
6.30 to 7.00

Now the compound CC1COc2cc(Cl)ccc2N1C(=O)N1CC2(C1)CN(c1cnccn1)C2 (single isomer, unassigned) [1-58-B]
> 7.00

Now the compound CC1COc2cc(F)ccc2N1C(=O)N1CC2(C1)CN(c1cnccn1)C2 (single isomer, unassigned) [1-65-A]
≤ 6.00

Now the compound `O=C(N1CC2(C1)CN(c1nccnc1F)C2)N1CCOc2cc(Cl)ccc21`
> 7.00

Now the compound `O=C(N1CC2(C1)CN(c1cnccn1)C2)N1CCOCc2cc(Cl)ccc21`
> 7.00

Now the compound `O=C(N1CC2(C1)CN(c1ccc(F)cn1)C2)N1CCOc2cc(F)ccc21`
> 7.00

Now the compound `O=C(N1CC2(CN(Cc3cnccn3)C2)C1)N1CCOc2cc(Cl)ccc21`
≤ 6.00

Now the compound Cc1cncc(N2CC3(CN(C(=O)N4c5ccc(F)cc5OCC4C)C3)C2)n1 (centres unmarked) [20-2]
> 7.00

----------
Known IC50 of a selection of molecules
experimentalSystem: human Oxytocin Receptor (hOTR) (Homo sapiens, UniProt P30559)
Sequence (P30559 whole entry): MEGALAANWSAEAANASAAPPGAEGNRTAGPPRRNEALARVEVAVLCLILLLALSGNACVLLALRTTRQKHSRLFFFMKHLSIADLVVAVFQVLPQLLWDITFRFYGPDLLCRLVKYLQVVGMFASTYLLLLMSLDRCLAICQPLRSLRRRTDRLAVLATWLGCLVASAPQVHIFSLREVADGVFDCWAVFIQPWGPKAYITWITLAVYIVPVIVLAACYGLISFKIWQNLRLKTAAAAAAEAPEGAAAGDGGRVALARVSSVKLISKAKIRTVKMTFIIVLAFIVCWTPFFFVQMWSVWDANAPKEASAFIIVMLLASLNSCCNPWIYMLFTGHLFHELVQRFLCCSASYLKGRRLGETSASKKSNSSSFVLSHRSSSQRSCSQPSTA
assayInfo: Oxytocin receptor (OTR) antagonist assay (FLIPR calcium, CHEM-1-hOTR cells)

[[record]]
molecule = "CC1COc2cc(Cl)ccc2N1C(=O)N1CC2(C1)CN(c1noc3cccnc13)C2 (single isomer, unassigned) [18-3-B]"
measurementtype = "IC50"
reportedmeasurement = "≥ 1000 nM"

[[record]]
molecule = "O=C(N1CC2(C1)CN(c1ccc(F)cn1)C2)N1CCOCc2cc(Cl)ccc21"
measurementtype = "IC50"
reportedmeasurement = "≥ 1000 nM"

[[record]]
molecule = "O=C(N1CC2(C1)CN(c1ccc(F)cn1)C2)N1CCC(F)c2cc(Cl)ccc21 (centres unmarked)"
measurementtype = "IC50"
reportedmeasurement = "≥ 1000 nM"

[[record]]
molecule = "CC1COc2cc(Cl)ccc2N1C(=O)N1CC2(C1)CN(c1ncccc1F)C2 (single isomer, unassigned)"
measurementtype = "IC50"
reportedmeasurement = "< 100 nM"

[[record]]
molecule = "O=C(N1CC2(C1)CN(c1cc(F)ccn1)C2)N1CCOc2cc(Cl)ccc21"
measurementtype = "IC50"
reportedmeasurement = "≥ 1000 nM"


Which value of IC50 has been reported for CC1COc2cc(Cl)c(F)cc2N1C(=O)N1CC2(C1)CN(c1cccnn1)C2 (single isomer, unassigned) [19-4-A] in the records?
100 to 500 nM

Now the molecule CC1COc2cc(Cl)ccc2N1C(=O)N1CC2(C1)CN(c1ncc(F)cn1)C2 (single isomer, unassigned)
100 to 500 nM

Now the molecule COc1ccnc(N2CC3(CN(C(=O)N4c5ccc(Cl)cc5OCC4C)C3)C2)c1 (single isomer, unassigned) [20-8-B]
100 to 500 nM
